Hello, the source for this data is the supplement of paper PMC10681739, in case you need it.

- experimentalTarget: ETS1 (UniProt P14921)
- Sequence: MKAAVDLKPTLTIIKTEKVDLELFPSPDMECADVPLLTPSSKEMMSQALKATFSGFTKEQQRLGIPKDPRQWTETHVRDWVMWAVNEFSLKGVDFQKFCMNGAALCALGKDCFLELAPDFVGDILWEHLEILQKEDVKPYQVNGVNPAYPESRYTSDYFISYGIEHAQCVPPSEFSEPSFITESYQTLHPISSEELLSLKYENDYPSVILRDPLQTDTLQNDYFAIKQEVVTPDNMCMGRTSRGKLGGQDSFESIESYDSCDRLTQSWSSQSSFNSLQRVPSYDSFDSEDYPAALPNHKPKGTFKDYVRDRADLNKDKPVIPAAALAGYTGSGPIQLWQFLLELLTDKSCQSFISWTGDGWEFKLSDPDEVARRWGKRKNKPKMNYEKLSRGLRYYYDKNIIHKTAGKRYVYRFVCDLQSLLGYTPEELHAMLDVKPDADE
- experimentalProtocol: ETS1 binding intensity (PBM fluorescence) in presence of RUNX1, normalised to ETS1-only experiment (arbitrary fluorescence units); higher = stronger binding
- cond: ETS1 concentration 1 nM; RUNX1 concentration 25 nM
The recorded ETS1 binding intensity of each item maps onto one of these classes: Low (below 800), Medium (800 to below 2000), High (2000 or more)

Record excerpt, results attached:
TGCGAGCACCCGGAAGCCGCTTGCGGGCTCCCGGAG
High
CAGTGGCAGGAAGAGGTCAGAAACCACTCGTGGTGG
Medium
GCAGGCGTGCGCTTCCGCTCCAACCCGCGCACTTCG
Medium

// query Which band does ACCAGAAGCACTGCAGGATGTGGTATCAAGACGCCT fall in?
// result High

// query Which band does GTCGGGAAGTAGGCGGGGTGACGTGTGGTTGACGAG fall in?
// result Low

// query Which band does GGTTCATTTCCTTTTCCTCCTTGTGGTATAAAAGAG fall in?
// result Medium

// query Which band does GAAAACACAGGAAGCCGTCCGCGCAACCGCGTTGCA fall in?
// result High

// query Which band does GCGGAGGGAAGCGGAAATACTTGCGGTGGGGGCGAC fall in?
// result High

// query Which band does TGCACACATGAGGAAGGGGTAAGTGGTTTTCCCTAC fall in?
// result Low

// query Which band does TGCCTCCTCGTCACAGGATGTGGTCGCTGCACCCTG fall in?
// result High

// query Which band does CAGCCAGCCAGGAAGCAGGGGCTGCGGGGCTGACAG fall in?
// result Low

// query Which band does GGCAGGAGCTTCCGGCTCAGCCCTGCGGCCTGTGCC fall in?
// result Low

// query Which band does GCCTGAAGCAGAGGATGTGGCTTCTGGCCCTCCCCT fall in?
// result Medium

// query Which band does AGGCGAAGGATGACTTCCTGCGGCACTACACAGTGT fall in?
// result Low

// query Which band does AGCGGTGTTTCAGGATGTGAGGGCCCGCAGGAGCCG fall in?
// result Medium

// query Which band does GCGCGGCTCAGGAAGCGACGCGGTTCAGGGAGCGAA fall in?
// result Low

// query Which band does CCCGGAAACTCAACTGCCCACTGCTGCGGCCGCCAT fall in?
// result Low
